Known IC50 of a selection of molecules
Target: EGFR (L858R T790M C797S) (Homo sapiens, UniProt P00533, C797S/L858R/T790M)
Sequence (P00533 25-1210 T790M/C797S/L858R): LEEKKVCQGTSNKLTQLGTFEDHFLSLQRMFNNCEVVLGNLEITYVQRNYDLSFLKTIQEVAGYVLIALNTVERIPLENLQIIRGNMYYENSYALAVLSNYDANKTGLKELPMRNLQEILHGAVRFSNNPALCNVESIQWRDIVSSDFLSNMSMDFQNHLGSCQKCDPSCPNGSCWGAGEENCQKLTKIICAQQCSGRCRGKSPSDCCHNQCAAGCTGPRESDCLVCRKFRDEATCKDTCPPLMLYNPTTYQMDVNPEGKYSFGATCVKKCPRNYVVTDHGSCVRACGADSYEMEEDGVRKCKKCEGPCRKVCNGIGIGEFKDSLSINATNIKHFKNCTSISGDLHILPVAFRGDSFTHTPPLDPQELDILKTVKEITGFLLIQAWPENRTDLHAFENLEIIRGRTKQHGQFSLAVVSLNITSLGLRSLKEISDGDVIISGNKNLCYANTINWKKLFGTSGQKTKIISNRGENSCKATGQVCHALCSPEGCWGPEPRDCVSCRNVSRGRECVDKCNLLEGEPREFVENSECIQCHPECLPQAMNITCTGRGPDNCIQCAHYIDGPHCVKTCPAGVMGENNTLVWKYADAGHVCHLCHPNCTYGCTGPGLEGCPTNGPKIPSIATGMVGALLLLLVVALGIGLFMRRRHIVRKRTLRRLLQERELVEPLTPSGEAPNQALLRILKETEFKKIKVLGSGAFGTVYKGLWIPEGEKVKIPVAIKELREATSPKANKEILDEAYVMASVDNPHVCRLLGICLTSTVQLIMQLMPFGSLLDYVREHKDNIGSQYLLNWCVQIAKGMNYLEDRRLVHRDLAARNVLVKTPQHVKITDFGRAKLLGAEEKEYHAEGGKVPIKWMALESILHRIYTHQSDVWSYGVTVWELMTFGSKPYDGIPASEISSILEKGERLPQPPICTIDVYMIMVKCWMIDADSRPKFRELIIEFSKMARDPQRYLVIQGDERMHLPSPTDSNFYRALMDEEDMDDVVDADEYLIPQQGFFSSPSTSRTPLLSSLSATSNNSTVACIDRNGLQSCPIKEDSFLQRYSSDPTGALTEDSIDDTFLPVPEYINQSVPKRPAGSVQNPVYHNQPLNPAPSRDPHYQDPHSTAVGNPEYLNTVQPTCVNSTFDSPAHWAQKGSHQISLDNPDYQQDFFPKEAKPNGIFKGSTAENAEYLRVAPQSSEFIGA
Test: Biochemical EGFR inhibition assay (Caliper mobility shift), EGFR LRTMCS mutant
Details: inhibitory activity against EGFR LRTMCS mutant; apparent IC50; read-out: Ext Enz LRTMCS

# count of solved cases: 2
molecule: CC(C)c1ccc(N2C[C@H](CS(C)(=O)=O)[C@H]2C)c2cnc(Nc3ccnc(N4CCC(OCCO)CC4)n3)cc12
IC50: ≤ 15 nM

molecule: CO[C@]1(C)CN(c2nccc(Nc3cc4c(C(C)C)ccc(N5CC(CS(C)(=O)=O)C5)c4cn3)n2)CC[C@@H]1O (single isomer, unassigned) [Compound 95]
IC50: 20.1 to 30 nM

Please turn your attention to the following entry.
Consider the molecule CO[C@@H]1[C@H](O)CN(c2nccc(Nc3cc4c(C(C)C)ncc(N5C[C@H](CS(C)(=O)=O)[C@H]5C)c4cn3)n2)CC1(F)F (single isomer, unassigned) and give its recorded IC50. ≤ 15 nM

---

Target: EGFR (L858R T790M C797S) (Homo sapiens, UniProt P00533, C797S/L858R/T790M)
Assay: Biochemical EGFR inhibition assay (Caliper mobility shift), EGFR LRTMCS mutant
Details: inhibitory activity against EGFR LRTMCS mutant; apparent IC50; read-out: Ext Enz LRTMCS
Known IC50 of a selection of compounds

# count of solved cases: 10
compound: CC(C)c1cnc(N2CC(CS(=O)(=O)C(F)F)C2)c2cnc(Nc3ccnc(N4CC[C@@H](O)[C@@](C)(F)C4)n3)cc12 (single isomer, unassigned) [Compound 220]
IC50: ≤ 15 nM
--
compound: CCS(=O)(=O)CC1CN(c2ncc(C(C)C)c3cc(Nc4ccnc(N5CCN[C@@H](C(F)F)C5)n4)ncc23)C1 (single isomer, unassigned) [Compound 160]
IC50: 15.1 to 20 nM
--
compound: CO[C@@H]1[C@H](O)CN(c2nccc(Nc3cc4c(C(C)C)ccc(N5CC(CS(C)(=O)=O)C5)c4cn3)n2)CC1(F)F (single isomer, unassigned) [Compound 218]
IC50: ≤ 15 nM
--
compound: CC(C)c1ccc(N2C[C@H](CS(C)(=O)=O)[C@H]2C)c2cnc(Nc3ccnc(N4CC[C@@H](O)[C@@H](F)C4)n3)cc12 [Compound 62]
IC50: ≤ 15 nM
--
compound: CO[C@H]1CCN(c2nncc(Nc3cc4c(C(C)C)ccc(N5C[C@H](CS(C)(=O)=O)[C@H]5C)c4cn3)n2)C[C@H]1F [Compound 133]
IC50: ≤ 15 nM
--
compound: CC(C)c1ncc(N2CC(CS(C)(=O)=O)C2)c2cnc(Nc3ccnc(N4CC[C@@H](O)[C@@](C)(F)C4)n3)cc12 (single isomer, unassigned) [Compound 70]
IC50: ≤ 15 nM
--
compound: CO[C@@H]1[C@H](F)CN(c2nccc(Nc3cc4c(C(C)C)ccc(N5C[C@H](CS(C)(=O)=O)[C@H]5C)c4cn3)n2)C[C@@H]1O (single isomer, unassigned) [Compound 202]
IC50: 20.1 to 30 nM
--
compound: CC(C)c1ccc(N2CC(CS(=O)(=O)C3CN(C)C3)C2)c2cnc(Nc3ccnc(N4CC[C@@H](O)[C@@](C)(F)C4)n3)cc12 (single isomer, unassigned) [Compound 238]
IC50: ≤ 15 nM
--
compound: CO[C@H]1CN(c2nccc(Nc3cc4c(C(C)C)ccc(N5C[C@H](CS(C)(=O)=O)[C@H]5C)c4cn3)n2)C[C@@H](F)[C@H]1O (racemic) [Compound 200]
IC50: 15.1 to 20 nM
--
compound: CC(C)c1cnc(N2C[C@H](CS(C)(=O)=O)[C@H]2C)c2cnc(Nc3ccnc(N4CC[C@](C)(O)[C@H](F)C4)n3)cc12 (single isomer, unassigned) [Compound 135]
IC50: ≤ 15 nM

Please turn your attention to the following entry.
Consider the compound CC(C)c1ccc(N2C[C@H](CS(C)(=O)=O)[C@H]2C)c2cnc(Nc3ccnc(N4CC[C@@H](OCCO)C(F)(F)C4)n3)cc12 (single isomer, unassigned) [Compound 251] and give its recorded IC50. 15.1 to 20 nM

---

Biological target: EGFR (L858R T790M C797S) (Homo sapiens, UniProt P00533, C797S/L858R/T790M)
Test: Biochemical EGFR inhibition assay (Caliper mobility shift), EGFR LRTMCS mutant
Conditions: inhibitory activity against EGFR LRTMCS mutant; apparent IC50; read-out: Ext Enz LRTMCS
measured_attribute: IC50

# count of solved cases: 2
compound: CC(C)c1ncc(N2C[C@H](CS(C)(=O)=O)[C@H]2C)c2cnc(Nc3ccnc(N4CC[C@@](C)(O)[C@@H](F)C4)n3)cc12 (single isomer, unassigned) [Compound 138]
measured_attribute: IC50
result_value: ≤ 15 nM

compound: [2H]C([2H])([2H])O[C@@H]1CCN(c2nccc(Nc3cc4c(C5CC5)ccc(N5C[C@H](CS(C)(=O)=O)[C@H]5C)c4cn3)n2)C[C@@H]1F [Compound 315]
measured_attribute: IC50
result_value: ≤ 15 nM

Consider the compound CCS(=O)(=O)CC1CN(c2ccc(C)c3cc(Nc4ccnc(N5CC[C@@H](O)[C@@](C)(F)C5)n4)ncc23)C1 (single isomer, unassigned) [Compound 25] and give its recorded IC50. ≤ 15 nM

---

Molecular target: EGFR (L858R T790M C797S) (Homo sapiens, UniProt P00533, C797S/L858R/T790M)
Assay: Biochemical EGFR inhibition assay (Caliper mobility shift), EGFR LRTMCS mutant
Details: inhibitory activity against EGFR LRTMCS mutant; apparent IC50; read-out: Ext Enz LRTMCS
pIC50: −log10 of the molar value.
measured_attribute: pIC50

# count of solved cases: 6
molecule: CC(C)c1ccc(N2C[C@H](CS(C)(=O)=O)[C@H]2C)c2cnc(Nc3ccnc(N4CC[C@H](F)[C@H](O)C4)n3)cc12 (single isomer, unassigned)
pIC50: 7.00 to 7.52
--
molecule: CO[C@@H]1[C@H](O)CN(c2nccc(Nc3cc4c(C(C)C)ccc(N5CC(CS(C)(=O)=O)C5)c4cn3)n2)C[C@@H]1F (single isomer, unassigned)
pIC50: ≥ 7.82
--
molecule: CC(C)c1ccc(N2CC(CS(C)(=O)=O)C2)c2cnc(Nc3ccnc(N4CC[C@](C)(O)[C@@](C)(F)C4)n3)cc12 (single isomer, unassigned)
pIC50: 7.00 to 7.52
--
molecule: CC(C)c1cnc(N2CC(CS(C)(=O)=O)C2)c2cnc(Nc3ccnc(N4CCN(C)CC4)n3)cc12
pIC50: 7.52 to 7.70
--
molecule: CCS(=N)(=O)CC1CN(c2ccc(C(C)C)c3cc(Nc4ccnc(N5CCC(OC)C(F)C5)n4)ncc23)C1 (single isomer, unassigned)
pIC50: 7.70 to 7.82
--
molecule: CO[C@H]1CCN(c2nccc(Nc3cc4c(C(C)C)ccc(N5CC(CS(C)(=O)=O)C5)c4cn3)n2)C[C@H]1F
pIC50: ≥ 7.82

Consider the molecule `CO[C@H]1CCN(c2nccc(Nc3cc4c(C(C)C)ncc(N5CC(CS(C)(=O)=O)C5)c4cn3)n2)C[C@H]1F` and give its recorded pIC50. ≥ 7.82

Consider the molecule CO[C@H]1CCN(c2nccc(Nc3cc4c(C(C)C)ccc(N5CC(CS(C)(=O)=O)C5)c4cn3)n2)C[C@@H]1O (single isomer, unassigned) [Compound 53] and give its recorded pIC50. ≥ 7.82

Consider the molecule CO[C@@H]1CCN(c2nccc(Nc3cc4c(C(C)C)ccc(N5CC(CS(C)(=O)=O)C5)c4cn3)n2)C[C@@H]1O (single isomer, unassigned) and give its recorded pIC50. ≥ 7.82

---

Molecular target: EGFR (L858R T790M C797S) (Homo sapiens, UniProt P00533, C797S/L858R/T790M)
Assay: Biochemical EGFR inhibition assay (Caliper mobility shift), EGFR LRTMCS mutant
Details: inhibitory activity against EGFR LRTMCS mutant; apparent IC50; read-out: Ext Enz LRTMCS
Known IC50 of a selection of compounds

compound: CC(C)c1ccc(N2C[C@H](CS(C)(=O)=O)[C@H]2C)c2cnc(Nc3cnnc(N4CC[C@@](C)(O)[C@@H](F)C4)n3)cc12 (single isomer, unassigned)
measured_attribute: IC50
result_value: ≤ 0.015 µM
//
compound: CC(C)c1ncc(N2C[C@H](CS(C)(=O)=O)[C@H]2C)c2cnc(Nc3ccnc(N4CC[C@@H](O)[C@@](C)(F)C4)n3)cc12 (single isomer, unassigned)
measured_attribute: IC50
result_value: ≤ 0.015 µM

Consider the compound `CC(C)c1ccc(N2C[C@H](CS(C)(=O)=O)[C@H]2C)c2cnc(Nc3ccnc(N4CC[C@@H](OCCN)[C@@](C)(F)C4)n3)cc12` and give its recorded IC50. ≤ 0.015 µM

Consider the compound `CC(C)c1ccc(N2CC(CS(C)(=O)=O)C2)c2cnc(Nc3ccnc(N4CCC5(CC4)COCCO5)n3)cc12` and give its recorded IC50. ≤ 0.015 µM

Consider the compound CC(C)c1ccc(N2C[C@H](CS(C)(=O)=O)[C@H]2C)c2cnc(Nc3ccnc(N4CC[C@H]5COC[C@H]54)n3)cc12 (single isomer, unassigned) and give its recorded IC50. ≤ 0.015 µM

Consider the compound CCS(=O)(=O)C[C@H]1CN(c2ncc(C(C)C)c3cc(Nc4ccnc(N5CC[C@@](C)(O)C(F)(F)C5)n4)ncc23)[C@@H]1C (single isomer, unassigned) and give its recorded IC50. 0.0151 to 0.02 µM

Consider the compound CC(C)c1cnc(N2C[C@@H](CS(C)(=O)=O)[C@@H]2C)c2cnc(Nc3ccnc(N4CC[C@@H](O)[C@@](C)(F)C4)n3)cc12 (single isomer, unassigned) and give its recorded IC50. ≤ 0.015 µM
